src = paper PMC9246766

target: OCT3 (Homo sapiens, UniProt O75751); assay: IC50 determination against OCT3-mediated ASP+ uptake in HEK-293 cells overexpressing OCT3; format: cell-based
Sequence (O75751 whole entry): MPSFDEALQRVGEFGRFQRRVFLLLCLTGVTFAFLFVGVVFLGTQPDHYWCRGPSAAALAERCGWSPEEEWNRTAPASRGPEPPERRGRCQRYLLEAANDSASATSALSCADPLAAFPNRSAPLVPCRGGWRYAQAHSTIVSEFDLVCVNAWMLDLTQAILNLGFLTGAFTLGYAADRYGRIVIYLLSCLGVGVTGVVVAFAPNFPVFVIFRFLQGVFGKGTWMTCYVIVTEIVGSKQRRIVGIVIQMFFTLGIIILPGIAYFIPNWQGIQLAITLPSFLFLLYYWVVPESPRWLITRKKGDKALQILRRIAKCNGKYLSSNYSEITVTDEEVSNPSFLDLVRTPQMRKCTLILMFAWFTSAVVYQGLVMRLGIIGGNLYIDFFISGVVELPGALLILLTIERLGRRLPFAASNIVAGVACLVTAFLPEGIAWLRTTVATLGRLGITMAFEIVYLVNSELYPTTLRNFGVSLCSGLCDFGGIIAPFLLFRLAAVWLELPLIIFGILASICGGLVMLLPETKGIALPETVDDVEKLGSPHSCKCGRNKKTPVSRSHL
recorded endpoint: IC50 (µM)
Numbers only; they are read as µM.

compound	unit abbrev	measured value
COc1ccccc1OCCNCC(O)COc1cccc2[nH]c3ccccc3c12 (centres unmarked)	µM	19.7
CCCc1nc2c(C)cc(-c3nc4ccccc4n3C)cc2n1Cc1ccc(-c2ccccc2C(=O)O)cc1	µM	12
CCCNCC(O)COc1ccccc1C(=O)CCc1ccccc1 (centres unmarked)	µM	2.4
[H]/N=C(\N/C(=N/[H])NCCCCCCNC(=N)NC(=N)Nc1ccc(Cl)cc1)Nc1ccc(Cl)cc1	µM	3.7

Okay, next one:
The recorded IC50 for `CNCCCN1c2ccccc2CCc2ccccc21` is 177
